# Test system: Lymphocytic leukemia P-388
# protocol-notes: In vivo antitumor activity, murine lymphocytic leukemia P-388
# condition-description: BDF1-SLC mice, i.p. transplant, once daily for 9 days, 30 days observation; T/C more than 130 effective
value-kind: Max. T/C on Mouse Lymphocytic Leukemia P 388 (%)
Dear colleague, please return just the value in %, with no unit written.

molecule: Cc1c(N)nc(C(CC(N)=O)NCC(N)C(N)=O)nc1C(=O)NC(C(=O)NC(C)C(O)C(C)C(=O)NC(C(=O)NCCc1nc(-c2nc(C(=O)NCCCN(C)CCCN(Cc3ccc(OCc4ccccc4)c(OCc4ccccc4)c3)Cc3ccc(OCc4ccccc4)c(OCc4ccccc4)c3)cs2)cs1)C(C)O)C(OC1OC(CO)C(O)C(O)C1OC1OC(CO)C(O)C(OC(N)=O)C1O)c1cnc[nH]1 (stereo not drawn)
number: 205

molecule: CC[N+](CC)(CCCNCCc1ccc(Cl)cc1)CCCNC(=O)c1csc(-c2csc(CCNC(=O)C(NC(=O)C(C)C(O)C(C)NC(=O)C(NC(=O)c3nc(C(CC(N)=O)NCC(N)C(N)=O)nc(N)c3C)C(OC3OC(CO)C(O)C(O)C3OC3OC(CO)C(O)C(OC(N)=O)C3O)c3cnc[nH]3)C(C)O)n2)n1 (stereo not drawn)
number: 150

Query Max. T/C on Mouse Lymphocytic Leukemia P 388 for Cc1c(N)nc(C(CC(N)=O)NCC(N)C(N)=O)nc1C(=O)NC(C(=O)NC(C)C(O)C(C)C(=O)NC(C(=O)NCCc1nc(-c2nc(C(=O)NCCCN(C)CCCNCC3CCCCCCCCCC3)cs2)cs1)C(C)O)C(OC1OC(CO)C(O)C(O)C1OC1OC(CO)C(O)C(OC(N)=O)C1O)c1cnc[nH]1 (stereo not drawn)
166

----------
# Tested on: ICR strain mice
# protocol-notes: Pulmonary toxicity (pulmonary fibrosis) in mice, intraperitoneal injection
# Format: in vivo
# condition-description: 5 mg/kg i.p. once a day for 10 days; reference of the ratio not stated
value-kind: Incidence of pulmonary fibrosis, Ratio
Answer with the value's number alone.

Example cases with answers are listed next.
compound: Cc1c(N)nc(C(CC(N)=O)NCC(N)C(N)=O)nc1C(=O)NC(C(=O)NC(C)C(O)C(C)C(=O)NC(C(=O)NCCc1nc(-c2nc(C(=O)NCCCN(C)CCCN(Cc3ccc(OCc4ccccc4)c(OCc4ccccc4)c3)Cc3ccc(OCc4ccccc4)c(OCc4ccccc4)c3)cs2)cs1)C(C)O)C(OC1OC(CO)C(O)C(O)C1OC1OC(CO)C(O)C(OC(N)=O)C1O)c1cnc[nH]1 (stereo not drawn)
number: 0.00
//
compound: COc1ccc(CNCCCN(C)CCCNC(=O)c2csc(-c3csc(CCNC(=O)C(NC(=O)C(C)C(O)C(C)NC(=O)C(NC(=O)c4nc(C(CC(N)=O)NCC(N)C(N)=O)nc(N)c4C)C(OC4OC(CO)C(O)C(O)C4OC4OC(CO)C(O)C(OC(N)=O)C4O)c4cnc[nH]4)C(C)O)n3)n2)c(OC)c1 (stereo not drawn)
number: 0.53

Then this compound:
Supply Incidence of pulmonary fibrosis, Ratio value. Item: Cc1c(N)nc(C(CC(N)=O)NCC(N)C(N)=O)nc1C(=O)NC(C(=O)NC(C)C(O)C(C)C(=O)NC(C(=O)NCCc1nc(-c2nc(C(=O)NCCCN(C)CCCN(Cc3ccc(OCc4ccc(Cl)cc4)c(OCc4ccc(Cl)cc4)c3)Cc3ccc(OCc4ccc(Cl)cc4)c(OCc4ccc(Cl)cc4)c3)cs2)cs1)C(C)O)C(OC1OC(CO)C(O)C(O)C1OC1OC(CO)C(O)C(OC(N)=O)C1O)c1cnc[nH]1 (stereo not drawn)
0.00
